- measurement_target: T1, human GITR (Glucocorticoid-induced TNFR-related gene, TNFRSF18) (human, UniProt Q9Y5U5 26-241)
- T1 sequence: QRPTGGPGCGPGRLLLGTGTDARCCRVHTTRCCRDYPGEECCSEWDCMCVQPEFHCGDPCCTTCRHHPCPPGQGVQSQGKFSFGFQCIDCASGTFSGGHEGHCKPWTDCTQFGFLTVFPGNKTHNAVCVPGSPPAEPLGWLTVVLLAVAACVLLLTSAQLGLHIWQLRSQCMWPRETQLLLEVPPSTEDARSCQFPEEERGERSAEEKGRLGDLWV
- assay_info: cell-based or functional assay
Please note: fulfilled applies when IFNg Secretion EC50 is 0.7 ng/mL or greater, and not fulfilled applies otherwise.

Query string: State whether the measured IFNg Secretion EC50 reaches 0.7 ng/mL, counting equality as reaching it, for 49E2v1 (antibody, human IgG1, lambda, V domains shown, tied to 49E2v1 by Ab23 / SS-12516; also called Ab23; SS-12516) VH: QVQLVESGGGVVQPGRSLRLSCAASGFTFSSYGMHWVRQAPGKGLEWVAVIWSDGNNKYYEDSVKGRFTISRDSSKNTLFLQMNSLRAEDTAVYYCARDTATPFDYWGQGTLVTVSS VL: QSALTQPASVSGSPGQSITISCTGTSSDVGIYNLVSWYQQHPGKAPKLMIHEVSKRPSGVSNRFSGSKSGNTASLTISGLQAEDEADYYCASYAGISTWVFGGGTKLTVLG
Result string: fulfilled

Query string: Try the binder 49D9v1 (antibody, human IgG1, kappa, V domains shown, tied to 49D9v1 by Ab22 / SS-12562; also called Ab22; SS-12562) VH: QMQLVESGGGVVQPGGSLRLSCAASGFTFSSYGMHWVRQAPGKGLEWVAVIWYAGSNKYYADSVKGRFTISRDNSKNTLYLQMNSLRAEDTAVYYCARGGRLGFYYYYGMDVWGQGTTVTVSS VL: DIQMTQSPSSLSASVGDRVTITCRASQGIRNDLGWYQQKPGKAPKRLIYAASSLQSGVPSRFSGSGSGTEFTLTISSLQPEDFATYYCLQLNSYPWTFGQGTKVEIKR
Result string: not fulfilled

Query string: Try the binder 7A10 (antibody, human IgG1, kappa, V domains shown, Fully human parental antibody; also called Ab18; SS-10944) VH: QVQLVESGGGVVQPGRSLRLSCAASGFTFSSYGMHWVRQAPGKGLEWMAVIWYVGSNKYYADSVKGRFTISRDNSKNTLYLQMNSLSAEDTAVYYCARGGELGRDYYSGMDVWGQGTTVTVSS VL: DIQMTQSPSSLSASVGDRVTITCRASQGIRNDLGWYQQKPGKAPKRLIYAASSLQSGVPSRFSGSGSGTEFTLTISSLQPEDFATYYCQQHNSYPWTFGQGTKVEIKR
Result string: not fulfilled

Query string: Try the binder 33C9 (antibody, human IgG1, kappa, V domains shown, Fully human parental antibody; also called Ab2; SS-12413) VH: QVQVVESGGGVVQPGRSLRLSCAASGFTFSSYGMHWVRQAPGKGLEWVSVIWYEGSNKYYADSVKGRFTISRDNSKNTLYLQMNSLRAEDTAVYYCARGGLLGYYYYYGMDVWGQGTTVTVSS VL: DIQMTQSPSSLSASVGDRVTITCRASQGIRNDLGWYQQKPGKAPKRLIYDASSLQSGVPSRFSGSGSGTEFTLTISSLQPEDFATYYCLQHHSYPWTFGQGTKVEIKR
Result string: fulfilled
